pKi: −log10 of the molar value.
Consider the following pKi data for Tyrosine-protein kinase JAK3 (Homo sapiens, UniProt P52333), collected from several reports.

molecule: CC(C)(Nc1nc(-c2c[nH]c(C(=O)N3CCCC3)c2)ncc1F)C(=O)NCC(F)(F)F
pKi: ≥ 6.00
//
molecule: CC(C)Oc1ccc(C2Nc3ccccc3-c3ccnc4[nH]cc2c34)cc1 (centres unmarked)
pKi: 5.60 to 6.60
//
molecule: CC1CCC(C(=O)Nc2nc(-c3ncnc4[nH]ccc34)cs2)CC1 (centres unmarked)
pKi: 6.30 to 7.00
//
molecule: c1ccc(Oc2ccc(C3Nc4ccccc4-c4ccnc5[nH]cc3c45)cc2)cc1 (centres unmarked)
pKi: < 5.60
//
molecule: CCC[C@H](Nc1cc(-c2cnn3cccnc23)ncn1)c1ccc(F)cc1
pKi: 7.00 to 8.00
//
molecule: CC(C)(Nc1nc(-c2c[nH]c3ncncc23)ncc1F)C(=O)NCC(F)F
pKi: > 6.30
//
molecule: Nc1nn2cc(-c3ccncc3)cnc2c1-c1cccc(NCCC2=CCCCC2)n1
pKi: < 5.30
//
molecule: Nc1nn2cc(-c3cccnc3N3CCC(CCO)CC3)cnc2c1-c1ccccn1
pKi: < 5.30
//
molecule: Oc1ccc(C2Nc3ncccc3-c3ccnc4[nH]cc2c34)cc1 (centres unmarked)
pKi: ≥ 6.60
//
molecule: O=C(O)c1ccc(C2Nc3ccccc3-c3ccnc4[nH]cc2c34)cc1 (centres unmarked)
pKi: < 5.60
//
molecule: Oc1ccc(C2Nc3ccccc3-c3ccnc4[nH]cc2c34)cc1C(F)(F)F (centres unmarked)
pKi: 5.60 to 6.60

* * *

Consider the following Ki data for Tyrosine-protein kinase JAK3 (Homo sapiens), collected from several reports.
endpoint_name: Ki

compound: N#Cc1cccc(C(=O)Nc2ccnc(-c3cnn4cccnc34)c2)c1
recorded_value: 500 to 5000 nM

compound: c1ccc(-n2cnc(Nc3ccnc(NCCN4CCOCC4)c3)n2)cc1
recorded_value: > 1000 nM

compound: CN(c1nc(-c2c[nH]c3ncncc23)ncc1F)C(C(=O)NCC(F)(F)F)c1ccccc1 (stereo not drawn)
recorded_value: < 500 nM

compound: CN(CCCN)C(=O)c1cccc(-c2cnc3c(-c4ccccn4)c(N)nn3c2)n1
recorded_value: 500 to 5000 nM

compound: Cc1cc(O)ccc1C1Nc2ccccc2-c2ccnc3[nH]cc1c23 (stereo not drawn)
recorded_value: ≤ 250 nM

compound: Nc1nn2cc(-c3cccc(CN4CCOCC4)c3)cnc2c1-c1ccccn1
recorded_value: > 5000 nM

compound: COc1ccccc1Nc1cc(-c2c(N)nn3cc(-c4ccncc4)cnc23)ncn1
recorded_value: < 500 nM

compound: CCc1cc(C2CN(S(C)(=O)=O)C2)ncc1N(C)c1cc2c(cn1)ncn2C
recorded_value: 685 nM

compound: Nc1nn2cc(C(=O)NCc3cccnc3)cnc2c1-c1ccccn1
recorded_value: > 5000 nM

compound: CNc1ccc2c(-c3oncc3-c3cccc(F)c3F)c[nH]c2n1
recorded_value: 1000 to 12500 nM

compound: CC(C)[C@@H](Nc1nc(-c2ccc3c(c2)OCO3)ncc1F)C(=O)NCC(F)(F)F
recorded_value: 10000 to 50000 nM

compound: COC(C)(C)CCOc1nc(N[C@@H](C)c2ccc(F)cc2F)cc(-c2cnn3cccnc23)n1
recorded_value: 100 to 500 nM

* * *

Consider the following Ki data for Tyrosine-protein kinase JAK3 (Homo sapiens, UniProt P52333), collected from several reports.
endpoint_name: Ki

compound: O=C(c1ccc(-c2ncnc3[nH]ccc23)o1)N(CCC(F)(F)F)C1CCCC1
endpoint_name: Ki
recorded_value: < 100 nM
--
compound: Nc1nn2cc(-c3ccc(C(=O)NC4CCCO4)cn3)cnc2c1-c1ccccn1 (centres unmarked)
endpoint_name: Ki
recorded_value: > 5000 nM
--
compound: COc1ccc(-c2cnc3c([N+](=O)[O-])c(N)nn3c2)cc1
endpoint_name: Ki
recorded_value: > 5000 nM
--
compound: Nc1nn2cc(-c3cccc(CO)c3)cnc2c1-c1ccccn1
endpoint_name: Ki
recorded_value: 500 to 5000 nM
--
compound: CCC(CC)CNC(=O)c1cc(-c2ncnc3[nH]ccc23)c[nH]1
endpoint_name: Ki
recorded_value: < 100 nM
--
compound: CCN(CC)CCOc1nc(N[C@@H](C)c2ccc(F)cc2)cc(-c2c(N)nn3cccnc23)n1
endpoint_name: Ki
recorded_value: 10 to 100 nM
--
compound: CC(=O)N1[C@H](C)CN(c2cc(-n3cnc(Nc4ccc(NC(=O)NC(C)(C)C)cc4)n3)ccn2)C[C@@H]1C
endpoint_name: Ki
recorded_value: 10 to 1000 nM
--
compound: Cc1ccc(C2Nc3ccccc3-c3ccnc4[nH]cc2c34)cc1 (centres unmarked)
endpoint_name: Ki
recorded_value: > 2500 nM
--
compound: O=C(CCC(F)(F)F)Nc1nc(-c2ncnc3[nH]ccc23)cs1
endpoint_name: Ki
recorded_value: < 100 nM
--
compound: O=C1COc2ccc(-c3ccnc(Nc4ccccc4)n3)cc2N1Cc1cccnc1
endpoint_name: Ki
recorded_value: < 5000 nM
--
compound: CC(C)(Nc1ccnc(-c2ccc3nccnc3c2)n1)C(=O)NCC(F)(F)F
endpoint_name: Ki
recorded_value: ≤ 1000 nM
--
compound: CC(C)(Nc1ccnc(-c2ccc(O)cc2)n1)C(=O)NCC(F)(F)F
endpoint_name: Ki
recorded_value: ≤ 1000 nM
--
compound: CC(C)CN(CCC#N)C(=O)c1cc(-c2ncnc3[nH]ccc23)c[nH]1
endpoint_name: Ki
recorded_value: < 100 nM
--
compound: FC(F)(F)c1ccc(/C=C/c2ncnc3[nH]ccc23)cc1
endpoint_name: Ki
recorded_value: < 500 nM
--
compound: OC[C@H]1CCCN1c1nc(-c2c[nH]c3ncncc23)ncc1F
endpoint_name: Ki
recorded_value: 500 to 5000 nM
--
compound: c1ccc2c(c1)NC(C1CCNCC1)c1c[nH]c3nccc-2c13 (centres unmarked)
endpoint_name: Ki
recorded_value: 250 to 2500 nM
--
compound: NCc1cccc(-c2cnc3c(-c4ccccn4)c(N)nn3c2)c1
endpoint_name: Ki
recorded_value: > 5000 nM
